Every entry's value here was drawn from patent US7998965B2.

target: purified recombinant human Aggrecanase-2 (Ag2t-Phe628-Strep) (Homo sapiens, UniProt Q9UNA0); construct: the form used is denoted as Ag2t-Phe628-Strep (MW=41,737); test: In vitro fluorescence screen for Aggrecanase-2 inhibitors; assay type: biochemical; conditions: Table 2; read-out: Agg 2 IC50
Sequence (Q9UNA0 262-628): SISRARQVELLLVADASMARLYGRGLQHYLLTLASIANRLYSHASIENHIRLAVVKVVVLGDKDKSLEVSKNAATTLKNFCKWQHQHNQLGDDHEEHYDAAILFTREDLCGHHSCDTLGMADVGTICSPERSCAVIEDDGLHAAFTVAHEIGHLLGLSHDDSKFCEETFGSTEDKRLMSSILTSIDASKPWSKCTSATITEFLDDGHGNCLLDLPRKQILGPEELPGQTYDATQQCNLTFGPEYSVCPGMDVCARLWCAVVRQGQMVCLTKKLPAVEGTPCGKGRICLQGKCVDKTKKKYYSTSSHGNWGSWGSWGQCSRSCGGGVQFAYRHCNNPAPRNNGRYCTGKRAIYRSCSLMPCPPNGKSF
Reported log10 IC50 is given for each of the following compounds.
// units: nM (pre-log); metric: IC50; scale: log10

Below, each entry is followed by its recorded log10 IC50 result.
// field: log10 IC50; key: COc1cc(CNC(=O)[C@H](CCC(=O)O)NC(=O)c2ccc(-c3ccc(O)cc3)cc2)cc(OC)c1OC [Example 17V] ; value = 3.26

// field: log10 IC50; key: C[C@@H](CNC(=O)[C@H](CCC(=O)O)NC(=O)c1ccc2c(c1)Cc1ccccc1-2)c1ccccc1 [Example 8JJJJJJ] ; value = 2.97

// field: log10 IC50; key: CC(C)(Cc1ccccc1)NC(=O)[C@H](CCC(=O)O)NC(=O)c1ccc(-c2ccc(O)cc2)cc1 [Example 17LL] ; value = 3.08

// field: log10 IC50; key: COc1cccc(-c2ccc(C(=O)N[C@@H](CCC(=O)O)C(=O)NCc3cc(OC)c(OC)c(OC)c3)cc2)c1 [Example 17C] ; value = 1.90

// field: log10 IC50; key: O=C(O)CC[C@H](NC(=O)C1c2ccccc2-c2ccccc21)C(=O)NC12CC3CC(CC(C3)C1)C2 [Example 8BBBBB] ; value = 4.32

// field: log10 IC50; key: O=C(O)CC[C@H](NC(=O)c1ccc2c(c1)Cc1ccccc1-2)C(=O)NC12CC3CC(CC(C3)C1)C2 [Example 8AAAAA] ; value = 2.61

// field: log10 IC50; key: Cc1cccc(CNC(=O)[C@H](CCC(=O)O)NC(=O)c2ccc(-c3ccc4c(c3)OCO4)cc2)c1 [Example 17NN] ; value = 2.86

# next compound below
// field: log10 IC50; key: Cc1ccc(-c2ccc(C(=O)N[C@@H](CCC(=O)O)C(=O)NC(C)(C)Cc3ccc(F)cc3)cc2)cc1F [Example 17GG] ; value = 2.05
